- Organism: Rattus norvegicus
- Test Name: DrugMatrix - Regimen: Daily Repeat
- Format: toxicity, organism-based, Sprague-Dawley
- Parameters: regimen Daily Repeat, gender Male, age 6-8 weeks
- Measurement Parameters: in vivo, iv, 0 mg/kg, 72 h, tissue Blood, dose level Control, time 3 day, vehicle 100 % SALINE
Listed next: entries and their corresponding NEUTROPHIL.
Provide the measurement as a number trailed by its unit.

Request: Recorded NEUTROPHIL for CC[C@]1(O)C[C@@H]2CN(CCc3c([nH]c4ccccc34)[C@@](C(=O)OC)(c3cc4c(cc3OC)N(C)[C@H]3[C@@](O)(C(=O)OC)[C@H](OC(C)=O)[C@]5(CC)C=CCN6CC[C@]43[C@@H]65)C2)C1 [VINBLASTINE] , please?
Result: 6.5%

Request: Data request, read-out NEUTROPHIL, for CCC1=C[C@@H]2CN(C1)Cc1c([nH]c3ccccc13)[C@@](C(=O)OC)(c1cc3c(cc1OC)N(C)[C@H]1[C@@](O)(C(=O)OC)[C@H](OC(C)=O)[C@]4(CC)C=CCN5CC[C@]31[C@@H]54)C2 [VINORELBINE]
Result: 7%

Request: May I ask what NEUTROPHIL has been recorded for CCc1c2c(nc3ccc(OC(=O)N4CCC(N5CCCCC5)CC4)cc13)-c1cc3c(c(=O)n1C2)COC(=O)[C@]3(O)CC [IRINOTECAN] ?
Result: 11.5%

Request: Name the reported NEUTROPHIL value associated with the compound CC(=O)N[C@@H]1[C@H](Oc2c3cc4cc2Oc2ccc(cc2Cl)[C@@H](O[C@@H]2O[C@@H](CO)[C@@H](O)[C@H](O)[C@@H]2NC(C)=O)[C@@H]2NC(=O)[C@H](NC(=O)[C@@H]4NC(=O)[C@H]4NC(=O)[C@@H](Cc5ccc(c(Cl)c5)O3)NC(=O)[C@H](N)c3ccc(O)c(c3)Oc3cc(O)cc4c3)c3ccc(O)c(c3)-c3c(O[C@H]4O[C@H](CO)[C@@H](O)[C@@H](O)[C@@H]4O)cc(O)cc3[C@@H](C(=O)O)NC2=O)O[C@@H](CO)[C@@H](O)[C@@H]1O
Result: 10%

Request: Would you kindly share the measured NEUTROPHIL for COc1cccc2c1C(=O)c1c(O)c3c(c(O)c1C2=O)C[C@@](O)(C(=O)CO)C[C@@H]3O[C@H]1C[C@H](N)[C@H](O)[C@H](C)O1 [DOXORUBICIN] ?
Result: 6.5%

Now for a further compound.
Request: NEUTROPHIL for COc1cccc2c1C(=O)c1c(O)c3c(c(O)c1C2=O)C[C@@](O)(C(=O)CO)C[C@@H]3O[C@H]1C[C@H](N)[C@@H](O)[C@H](C)O1 [EPIRUBICIN] ?
Result: 11.5%

---

// reported PHOSPHORUS for each item listed
- Organism: Rattus norvegicus
- Test Name: DrugMatrix - Regimen: Daily Repeat
- Type: toxicity, organism-based, Sprague-Dawley
- Design: regimen Daily Repeat, gender Male, age 6-8 weeks
- Measurement Parameters: in vivo, po, 0 mg/kg, 120 h, tissue Plasma, route oral GAVAGE, dose level Control, time 5 day, vehicle .5 % CMC
Express the result in mg/dL but write the number alone.

Request: Given the entry Clc1ccc2c(c1)C(N1CCNCC1)=Nc1ccccc1O2 , report its measured PHOSPHORUS.
Result: 11.93

Request: Suppose we examine the compound CNC(=C[N+](=O)[O-])NCCSCc1ccc(CN(C)C)o1 ; what PHOSPHORUS value has been reported?
Result: 11.38

Others:
Request: # lookup: PHOSPHORUS of O=[N+]([O-])c1ccccc1
Result: 14.53

---

- Organism: Rattus norvegicus
- Test Name: DrugMatrix - Regimen: Daily Repeat
- Assay type: toxicity, organism-based, Sprague-Dawley
- Design: regimen Daily Repeat, gender Male, age 6-8 weeks
- Measurement Parameters: in vivo, iv, 0 mg/kg, 120 h, tissue Plasma, dose level Control, time 5 day, vehicle 100 % SALINE
Assay Metric: CREATININE (mg/dL)
Your answer is read as mg/dL, so omit the unit and give the number.

Request: So what's the measured CREATININE for this one? CC(=O)N[C@@H]1[C@H](Oc2c3cc4cc2Oc2ccc(cc2Cl)[C@@H](O[C@@H]2O[C@@H](CO)[C@@H](O)[C@H](O)[C@@H]2NC(C)=O)[C@@H]2NC(=O)[C@H](NC(=O)[C@@H]4NC(=O)[C@H]4NC(=O)[C@@H](Cc5ccc(c(Cl)c5)O3)NC(=O)[C@H](N)c3ccc(O)c(c3)Oc3cc(O)cc4c3)c3ccc(O)c(c3)-c3c(O[C@H]4O[C@H](CO)[C@@H](O)[C@@H](O)[C@@H]4O)cc(O)cc3[C@@H](C(=O)O)NC2=O)O[C@@H](CO)[C@@H](O)[C@@H]1O
Result: 0.22

---

- Organism: Rattus norvegicus
- Test Name: DrugMatrix - Regimen: Daily Repeat
- Format: toxicity, organism-based, Sprague-Dawley
- Set-up: regimen Daily Repeat, gender Male, age 6-8 weeks
- Measurement Parameters: in vivo, po, 1500 mg/kg, 120 h, tissue Plasma, route oral GAVAGE, dose level High, time 5 day, vehicle .5 % CMC
Assay Metric: SODIUM (MEQ/L)
Kindly provide the numeric value in MEQ/L only, without the unit symbol.

Request: For the molecule O=C(N[C@H](CO)[C@H](O)c1ccc([N+](=O)[O-])cc1)C(Cl)Cl , what SODIUM is on record?
Result: 143.67

Request: # get_value(readout='SODIUM', item= Cc1ccc(S(=O)(=O)NC(=O)NN2CC3CCCC3C2)cc1 (configuration not stated) [GLICLAZIDE] )
Result: 144.47

Request: Sample CNC(=C[N+](=O)[O-])NCCSCc1ccc(CN(C)C)o1 — what was its SODIUM?
Result: 144.53

Okay, next one:
Request: Which SODIUM is listed for CO[C@H]1/C=C/O[C@@]2(C)Oc3c(C)c(O)c4c(c3C2=O)C2=NC3(CCN(CC(C)C)CC3)NC2=C(NC(=O)/C(C)=C\C=C\[C@H](C)[C@H](O)[C@@H](C)[C@@H](O)[C@@H](C)[C@H](OC(C)=O)[C@@H]1C)C4=O ?
Result: 142.7

---

- Species on record: Rattus norvegicus
- Test Name: DrugMatrix - Regimen: Daily Repeat
- Type: toxicity, organism-based, Sprague-Dawley
- Set-up: regimen Daily Repeat, gender Male, age 6-8 weeks
- Measurement Parameters: in vivo, po, 900 mg/kg, 120 h, tissue Blood, route oral GAVAGE, dose level High, time 5 day, […]
Assay Metric: ABSOLUTE EOSINOPHIL (cells/µL)
Give your result in cells/µL as a bare value.

Request: Name the reported ABSOLUTE EOSINOPHIL value associated with the molecule Clc1ccc(Cl)cc1
Result: 80

---

- Species on record: Rattus norvegicus
- Test Name: DrugMatrix - Regimen: Daily Repeat
- Type: toxicity, organism-based, Sprague-Dawley
- Parameters: regimen Daily Repeat, gender Male, age 6-8 weeks
- Measurement Parameters: in vivo, po, 0 mg/kg, 120 h, tissue Blood, route oral GAVAGE, dose level Control, time 5 day, vehicle .5 % CMC
Entries and their ABSOLUTE SEGMENTED NEUTROPHIL values follow.
Write it as a number; the unit CELLS/uL goes unstated.

Request: # get_value(readout='ABSOLUTE SEGMENTED NEUTROPHIL', item= C#C[C@]1(O)CC[C@H]2[C@@H]3CCc4cc(OC)ccc4[C@H]3CC[C@@]21C )
Result: 1084.33

***
Request: Quick check: ABSOLUTE SEGMENTED NEUTROPHIL of CC(C)[C@H]1CC[C@H](C(=O)N[C@H](Cc2ccccc2)C(=O)O)CC1 [NATEGLINIDE] ?
Result: 1327

Request: Which ABSOLUTE SEGMENTED NEUTROPHIL value is on record for CN1C(=O)COc2c(C(=O)NC3CN4CCC3CC4)cc(Cl)cc21 (stereo not given) ?
Result: 1321.67

Request: Quick one: ABSOLUTE SEGMENTED NEUTROPHIL of OC(CCN1CCCCC1)(c1ccccc1)C1CCCCC1 (stereo not given) ?
Result: 980.67

Request: Quick one: ABSOLUTE SEGMENTED NEUTROPHIL of C[C@](O)(CS(=O)(=O)c1ccc(F)cc1)C(=O)Nc1ccc(C#N)c(C(F)(F)F)c1 [(R)-BICALUTAMIDE] ?
Result: 1225

Request: Recorded ABSOLUTE SEGMENTED NEUTROPHIL for CNC(=C[N+](=O)[O-])NCCSCc1ccc(CN(C)C)o1 , please?
Result: 1084.33

Request: Need ABSOLUTE SEGMENTED NEUTROPHIL, item C[C@]1(Cn2ccnn2)[C@H](C(=O)O)N2C(=O)C[C@H]2S1(=O)=O
Result: 1468.33

Request: Can you share its ABSOLUTE SEGMENTED NEUTROPHIL? I mean this compound: CC(=O)CC(c1ccccc1)c1c(O)c2ccccc2oc1=O (stereo not given)
Result: 1067.17

Request: Give its ABSOLUTE SEGMENTED NEUTROPHIL value. Item: CO[C@H]1/C=C/O[C@@]2(C)Oc3c(C)c(O)c4c(c3C2=O)C2=NC3(CCN(CC(C)C)CC3)NC2=C(NC(=O)/C(C)=C\C=C\[C@H](C)[C@H](O)[C@@H](C)[C@@H](O)[C@@H](C)[C@H](OC(C)=O)[C@@H]1C)C4=O
Result: 1084.33

Request: Request the reported ABSOLUTE SEGMENTED NEUTROPHIL associated with Clc1ccc2c(c1)C(N1CCNCC1)=Nc1ccccc1O2
Result: 1048.5
